Provide the reported % cells in cell cycle phase: G1 of each item.
Tested on: HeLa cells
Assay: Cell cycle assay in HeLa cells
Type: cell-based, human
Settings: HeLa cells, 150 nM oligomeric compound, 48 hours after treatment; relative to untreated control (UTC=100)
In the oligonucleotide strings, read from the 5' end, every base follows the letter of its sugar. An asterisk marks phosphorothioate; unmarked linkages are phosphodiester. Other units and linkages are bracketed, terminal groups are in braces. A string of capitals states the bases alone. e = 2'-O-(2-methoxyethyl) (MOE); [5mC] = 5-methylcytosine; d = 2'-deoxy (DNA)
Answers are plain numbers, in %.

>  <SUBSTANCE>
327944 (antisense eA*eA*eA*eG*eT*eG*eT*e[5mC]*eA*eG*eA*eT*eA*e[5mC]*eG*eG*eT*eG*eT*eG*eG) [compound 327944]

>  <EXPERIMENTAL TARGET>
HeLa cells

>  <READOUT LABEL>
% cells in cell cycle phase: G1

>  <UNIT ANNOTATION>
%

>  <ASSAY RESULT>
75

$$$$
>  <SUBSTANCE>
345373 (AGCCTATCCTGGATTACTTGAA; sugars from the 5' end e5 d10 e7, all phosphorothioate, methylation of C not given here) [compound 345373]

>  <EXPERIMENTAL TARGET>
HeLa cells

>  <READOUT LABEL>
% cells in cell cycle phase: G1

>  <UNIT ANNOTATION>
%

>  <ASSAY RESULT>
75

$$$$
>  <SUBSTANCE>
341787 (antisense CACAGGTTAAAGGGTCTCAGGGA; all 2'-MOE, all phosphorothioate, methylation of C not given here) [compound 341787]

>  <EXPERIMENTAL TARGET>
HeLa cells

>  <READOUT LABEL>
% cells in cell cycle phase: G1

>  <UNIT ANNOTATION>
%

>  <ASSAY RESULT>
55

$$$$

Dear colleague, could you please provide % cells in cell cycle phase: G1 for the substances listed below?
1. 328749 (antisense e[5mC]*eA*eG*e[5mC]*e[5mC]*dT*dG*d[5mC]*d[5mC]*dA*d[5mC]*d[5mC]*dG*d[5mC]*d[5mC]*eG*e[5mC]*eT*eT*eT) [compound 328749]
2. 327946 (antisense eA*eG*eG*e[5mC]*eG*eA*eA*eG*eG*eA*eT*eG*eA*e[5mC]*eA*eA*eA*eG*eG*eG*eA*eA) [compound 327946]

1. 37
2. 72
